Taken from PubChem BioAssay (NCI).

system: PC-3 prostate; test: NCI tumour cell line growth inhibition, 48 h
TGI for assorted compounds
experimental-endpoint: TGI

COc1ccc2cc3c4cc5c(cc4cc[n+]3cc2c1OC)OCO5 : > 100 µM
Cc1c2c(n(CCc3ccc(Cl)cc3)c1C)NN=C(C#N)S2(=O)=O : > 100 µM
OC(CN1CC1)C(O)CN1CC1 (stereo not given) : > 50 µg/mL
Cn1c([N+](=O)[O-])cnc1/C=C1\Oc2cc(Cl)ccc2C1=O : > 24.1 µM
CCOc1cc(C2CC(c3ccc(NS(=O)(=O)c4cc([N+](=O)[O-])ccc4C)cc3)=NN2C(=O)c2ccccc2)ccc1O (stereo not given) : > 100 µM
